- MEASURED ON: S. aureus Alpha hemolysin (Staphylococcus aureus)
- Sequence (P09616 27-319 limits assumed): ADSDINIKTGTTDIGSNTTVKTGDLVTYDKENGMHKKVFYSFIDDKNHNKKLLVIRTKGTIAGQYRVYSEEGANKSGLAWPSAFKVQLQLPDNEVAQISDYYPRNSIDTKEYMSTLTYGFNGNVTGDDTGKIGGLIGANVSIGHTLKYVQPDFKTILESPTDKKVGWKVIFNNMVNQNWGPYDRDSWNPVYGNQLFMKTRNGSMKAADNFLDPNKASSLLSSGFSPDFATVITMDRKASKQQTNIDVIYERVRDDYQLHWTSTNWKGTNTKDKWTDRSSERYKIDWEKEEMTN
- TEST METHOD NOTES: cell-based
- CONDITION DESCRIPTION: A549-LDH Assay activity
Item-by-item account of EC50

SMILES RECORD	EC50
Cc1cc2[nH]c(=O)c(=O)[nH]c2cc1S(=O)(=O)Nc1ccc(-c2ccn3ncnc3c2)c(Cl)c1	30 to 100 nM
COc1ccc(-c2ccc(NS(=O)(=O)c3cc4[nH]c(=O)c(=O)[nH]c4cc3C)cc2Cl)cc1F	< 30 nM
O=c1[nH]c2cc(Cl)c(S(=O)(=O)Nc3ccc(-c4ccc5c(c4)NCC5)c(Cl)c3)cc2[nH]c1=O	100 to 1000 nM
O=c1[nH]c2cc(Cl)c(S(=O)(=O)Nc3ccc(-c4ccc(F)c(Cl)c4)c(Cl)c3)cc2[nH]c1=O	100 to 1000 nM
Cc1cc2[nH]c(=O)c(=O)[nH]c2cc1S(=O)(=O)Nc1ccc(-c2ccc3c(c2)OCO3)c(Cl)c1	30 to 100 nM

[ask] # returns recorded EC50 (system: S. aureus Alpha hemolysin (Staphylococcus aureus)) for O=c1[nH]c2cc(Cl)c(S(=O)(=O)Nc3ccc(-c4ccc(F)c(Cl)c4F)c(Cl)c3)cc2[nH]c1=O
[reply] 100 to 1000 nM
